Source of measurements: PubChem BioAssay AID1963829

- Tested on: 935938-334-R-J1-PDC complex spheroid viability
- assay: Anticancer human tumor 935938-334-R-J1-PDC patient-derived small intestine adenocarcinoma cell line growth inhibition [POLQ]
- condition set: second compound 1 µM; first compound 0.316 µM; hits give low values
Label rule met when viability, T/C < 90%; otherwise rule not met.

O=c1[nH]cc(F)c(=O)[nH]1 + Nc1ccc(C#CCN(C(=O)Cc2ncc(C(F)(F)F)cc2C(F)(F)F)c2ccc(F)cc2)nn1 ... rule not met
CNCc1ccc(-c2[nH]c3cc(F)cc4c3c2CCNC4=O)cc1 + COC1C(OC(N)=O)C(O)C(Oc2ccc3c(O)c(NC(=O)c4ccc(O)c(CC=C(C)C)c4)c(=O)oc3c2C)OC1(C)C ... rule not met
COc1cc2cc(C(=O)CCC(=O)O)sc2cc1OC + Nc1ccc(C#CCN(C(=O)Cc2ncc(C(F)(F)F)cc2C(F)(F)F)c2ccc(F)cc2)nn1 ... rule met
CC1COCCN1c1cc(-c2ccnn2C)c2ccnc(-c3ccn[nH]3)c2n1 (stereo unspecified) + COC1C(OC(N)=O)C(O)C(Oc2ccc3c(O)c(NC(=O)c4ccc(O)c(CC=C(C)C)c4)c(=O)oc3c2C)OC1(C)C ... rule met

// switching to the query compound
Identify whether the compound C=CC(=O)N1CCN(c2nc(=O)n(-c3c(C)ccnc3C(C)C)c3nc(-c4c(O)cccc4F)c(F)cc23)C(C)C1 (stereo unspecified) + Cc1cccc(N(C)C(=O)C2C(O)CCN2c2nc(C)cc(C(F)(F)F)c2C#N)c1 records viability, T/C below 90%.
rule met

====

- Tested on: 935938-334-R-J1-PDC complex spheroid viability
- assay: Anticancer human tumor 935938-334-R-J1-PDC cell line growth inhibition [POLQ]; active = viability on the fitted dose curve at most 10% of control; inactive = the rest;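 note: spheroids exposed to drugs for seven days before viability read; 100% = DMSO vehicle control wells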
- condition set: second compound 0.1 µM; first compound 10 µM
# valid calls are 1 = active, -1 = inactive; nothing else

Solved entries (count: 8):
CCc1cc2c(N3CCc4c(cc(Cn5ccnc5)cc4-c4cn(C)nc4C(F)(F)F)C3=O)cc(C)nc2c(OC)n1 + COC1C(OC(N)=O)C(O)C(Oc2ccc3c(O)c(NC(=O)c4ccc(O)c(CC=C(C)C)c4)c(=O)oc3c2C)OC1(C)C ... -1
O=C(c1cc(Cc2n[nH]c(=O)c3ccccc23)ccc1F)N1CCN(C(=O)C2CC2)CC1 + COC1C(OC(N)=O)C(O)C(Oc2ccc3c(O)c(NC(=O)c4ccc(O)c(CC=C(C)C)c4)c(=O)oc3c2C)OC1(C)C ... -1
C=CC(=O)N1CCN(c2nc(=O)n(-c3c(C)ccnc3C(C)C)c3nc(-c4c(O)cccc4F)c(F)cc23)C(C)C1 (stereo not given) + Cc1cccc(N(C)C(=O)C2C(O)CCN2c2nc(C)cc(C(F)(F)F)c2C#N)c1 ... -1
COc1cccc2c1C(=O)c1c(O)c3c(c(O)c1C2=O)CC(O)(C(=O)CO)CC3OC1CC(N)C(O)C(C)O1 (stereo not given) + COC1C(OC(N)=O)C(O)C(Oc2ccc3c(O)c(NC(=O)c4ccc(O)c(CC=C(C)C)c4)c(=O)oc3c2C)OC1(C)C ... 1
CCc1cc2c(N3CCc4c(cc(Cn5ccnc5)cc4-c4cn(C)nc4C(F)(F)F)C3=O)cc(C)nc2c(OC)n1 + Nc1ccc(C#CCN(C(=O)Cc2ncc(C(F)(F)F)cc2C(F)(F)F)c2ccc(F)cc2)nn1 ... -1
O=c1[nH]cc(F)c(=O)[nH]1 + Nc1ccc(C#CCN(C(=O)Cc2ncc(C(F)(F)F)cc2C(F)(F)F)c2ccc(F)cc2)nn1 ... -1
O=C(Nc1ccc(O)c(NS(=O)(=O)c2ccc(F)cc2)c1)c1ccc(-c2ccccc2)cc1 + Cc1cccc(N(C)C(=O)C2C(O)CCN2c2nc(C)cc(C(F)(F)F)c2C#N)c1 ... -1
CCc1cc2c(N3CCc4c(cc(Cn5ccnc5)cc4-c4cn(C)nc4C(F)(F)F)C3=O)ccnc2c(OC)n1 + Nc1ccc(C#CCN(C(=O)Cc2ncc(C(F)(F)F)cc2C(F)(F)F)c2ccc(F)cc2)nn1 ... -1

Could you kindly confirm the outcome this assay logged for COc1cc2cc(C(=O)CCC(=O)O)sc2cc1OC + COC1C(OC(N)=O)C(O)C(Oc2ccc3c(O)c(NC(=O)c4ccc(O)c(CC=C(C)C)c4)c(=O)oc3c2C)OC1(C)C ?
-1

How about CC(C)n1c(=O)n(C)c2cnc3cc(F)c(-c4ccc(OCCCN5CCCCC5)nc4)cc3c21 + COC1C(OC(N)=O)C(O)C(Oc2ccc3c(O)c(NC(=O)c4ccc(O)c(CC=C(C)C)c4)c(=O)oc3c2C)OC1(C)C ?
-1

====

- System: 935938-334-R-J1-PDC complex spheroid viability
- assay: Anticancer human tumor 935938-334-R-J1-PDC cell line growth inhibition [POLQ];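 note: spheroids exposed to drugs for seven days before viability read; 100% = DMSO vehicle control wells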
- condition set: second compound 0.1 µM; first compound 0.000316 µM; hits give low values
observation type: viability, T/C (%)
Write it as a number; the unit % goes unstated.

Cn1ncnc1[C@H]1c2n[nH]c(=O)c3cc(F)cc(c23)N[C@@H]1c1ccc(F)cc1 + COC1C(OC(N)=O)C(O)C(Oc2ccc3c(O)c(NC(=O)c4ccc(O)c(CC=C(C)C)c4)c(=O)oc3c2C)OC1(C)C ... 96.5

Please give the measured viability, T/C for this compound: Cn1ncnc1[C@H]1c2n[nH]c(=O)c3cc(F)cc(c23)N[C@@H]1c1ccc(F)cc1 + Cc1cccc(N(C)C(=O)C2C(O)CCN2c2nc(C)cc(C(F)(F)F)c2C#N)c1
85.5

Here is the next compound: Cn1ncnc1[C@H]1c2n[nH]c(=O)c3cc(F)cc(c23)N[C@@H]1c1ccc(F)cc1 + Nc1ccc(C#CCN(C(=O)Cc2ncc(C(F)(F)F)cc2C(F)(F)F)c2ccc(F)cc2)nn1
68

====

- Test system: 935938-334-R-J1-PDC complex spheroid viability
- assay: Anticancer human tumor 935938-334-R-J1-PDC cell line growth inhibition [POLQ];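 note: spheroids exposed to drugs for seven days before viability read; 100% = DMSO vehicle control wells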
- condition set: second compound 0.316 µM; first compound 0.316 µM; hits give low values
observation type: viability, T/C (%)
// return numeric value only (unit: %, not printed)

CC1COCCN1c1cc(-c2ccnn2C)c2ccnc(-c3ccn[nH]3)c2n1 (stereo not given) + Cc1cccc(N(C)C(=O)C2C(O)CCN2c2nc(C)cc(C(F)(F)F)c2C#N)c1 ... 23.6

Entry under review: COc1ccc([C@@H](O)c2cc(-c3ncnc4cc(N5CCOCC5)ccc34)c(F)cc2Cl)nn1 + COC1C(OC(N)=O)C(O)C(Oc2ccc3c(O)c(NC(=O)c4ccc(O)c(CC=C(C)C)c4)c(=O)oc3c2C)OC1(C)C . Reported viability, T/C?
98.2

Then what about the molecule CC1COCCN1c1cc(C2(S(C)(=N)=O)CC2)nc(-c2ccnc3[nH]ccc23)n1 (stereo not given) + COC1C(OC(N)=O)C(O)C(Oc2ccc3c(O)c(NC(=O)c4ccc(O)c(CC=C(C)C)c4)c(=O)oc3c2C)OC1(C)C ?
81.9

Okay, and CCc1cc2c(N3CCc4c(cc(Cn5ccnc5)cc4-c4cn(C)nc4C(F)(F)F)C3=O)cc(C)nc2c(OC)n1 + Nc1ccc(C#CCN(C(=O)Cc2ncc(C(F)(F)F)cc2C(F)(F)F)c2ccc(F)cc2)nn1 ?
77.6

Subsequent entry: C=CCn1c(=O)c2cnc(Nc3ccc(N4CCN(C)CC4)cc3)nc2n1-c1cccc(C(C)(C)O)n1 + Cc1cccc(N(C)C(=O)C2C(O)CCN2c2nc(C)cc(C(F)(F)F)c2C#N)c1
67.8

====

Documented viability, T/C across a set of molecules
- Test system: 935938-334-R-J1-PDC complex spheroid viability
- assay: Anticancer human tumor 935938-334-R-J1-PDC cell line growth inhibition [POLQ];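 note: spheroids exposed to drugs for seven days before viability read; 100% = DMSO vehicle control wells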
- condition set: second compound 1 µM; first compound 0.001 µM; hits give low values
Give just the numeric value; % need not be written.

Example entries begin here.
CC[C@@]1(O)C(=O)OCc2c1cc1n(c2=O)Cc2cc3c(CN(C)C)c(O)ccc3nc2-1 + COC1C(OC(N)=O)C(O)C(Oc2ccc3c(O)c(NC(=O)c4ccc(O)c(CC=C(C)C)c4)c(=O)oc3c2C)OC1(C)C ... 83.1
Cn1ncnc1[C@H]1c2n[nH]c(=O)c3cc(F)cc(c23)N[C@@H]1c1ccc(F)cc1 + Cc1cccc(N(C)C(=O)C2C(O)CCN2c2nc(C)cc(C(F)(F)F)c2C#N)c1 ... 99.6
Cn1ncnc1[C@H]1c2n[nH]c(=O)c3cc(F)cc(c23)N[C@@H]1c1ccc(F)cc1 + COC1C(OC(N)=O)C(O)C(Oc2ccc3c(O)c(NC(=O)c4ccc(O)c(CC=C(C)C)c4)c(=O)oc3c2C)OC1(C)C ... 105
Cn1ncnc1[C@H]1c2n[nH]c(=O)c3cc(F)cc(c23)N[C@@H]1c1ccc(F)cc1 + Nc1ccc(C#CCN(C(=O)Cc2ncc(C(F)(F)F)cc2C(F)(F)F)c2ccc(F)cc2)nn1 ... 85.5
CC[C@@]1(O)C(=O)OCc2c1cc1n(c2=O)Cc2cc3c(CN(C)C)c(O)ccc3nc2-1 + Cc1cccc(N(C)C(=O)C2C(O)CCN2c2nc(C)cc(C(F)(F)F)c2C#N)c1 ... 115

Then there is this molecule:
Recorded viability, T/C for CC[C@@]1(O)C(=O)OCc2c1cc1n(c2=O)Cc2cc3c(CN(C)C)c(O)ccc3nc2-1 + Nc1ccc(C#CCN(C(=O)Cc2ncc(C(F)(F)F)cc2C(F)(F)F)c2ccc(F)cc2)nn1 with 935938-334-R-J1-PDC complex spheroid viability, please?
117
